Hey, just so you know, these numbers are from the DeepSol protein solubility set.

- Experiment Description: soluble on expression in E. coli; label from the status in PepcDB or PDB records
Experimental Endpoint: soluble on expression in E. coli

Record excerpt, results attached:
MESNTWNTIHDNKKENAALNDVQVEVNYAIKLDDQWTVRPGMLTHFSSNGTRYGPYVKLSWDATKDLNFGIRYRYDWKAYRQQDLSGDMSRDNVHRWDGYVTYHINSDFTFAWQTTLYSKQNDYRYANHKKWATENAFVLQYHMTPDITPYIEYDYLDRQGVYNGRDNLSENSYRIGVSFKL; not soluble
MSLENNKAKMNEKEEIIFNSIRKNPYISQQELADILDLSRPTVANLISGLIKKGRILGKAYILNEAKQIVCIGGANVDRKFYIKDKAQLATSNPVRSTQSAGGVARNVGENLGRLGKEVILLTACGTDSDWEAVKNASNTYMNLDYVTAFPSIATGSYTAVLENNGDLLVALADMDAYDHLTPDVLAKNEGLLSQASAIIADLNCPKETLEYLGSFAEINSIPLVLVPVSSPKMSHLPERLDHVTWLICNRDESETHLEMTIENDEDWRLAAQKWLDLGVKNVIVTNGSKGAVAANNAEGIIFEPAIVIENIVDVTGAGDAFCSAVIYAWLEGKSLQEILKAGSVNAARTLESEYTVRQNLSTSQLQKDLEEFKEGHHHHHH; soluble
GLPARSSSISNTNRTGENPMITPIISSNLGLKHRVTLRKATLASLMQSLSGESSNRVMWNDRYDTLLIARDPREIKNAIEKSVTDFGGLENYKELTGGADPFALMTPVCGLSANNIFKLMTEKDVPIDPTSIEYLENTSFAEHVNTLDSHKNYVVIVNDGRLGHKFLIDLPALTQGPRTAYIIQSDLGGGALPAVRVEDWISRRGSDPVSLDELNQLLSKDFSKMPDDVQTRLLASILQIDKDPHKVDIKKLHLDGKLRFASHEYDFRQFQRNAQYVAGLG; soluble
MGHHHHHHSHMAALKEDRSYGLSCGRVSDGSKVSVFHVKLTDSALRAFESYRARQDSVSLRPSIRFQGSQGHISIPQPDCPAEARTFSFYLSNIGRDNPQGSFDCIQQYVSSHGEVHLDCLGSIQDKITVCATDDSYQKARQSMAQAEEETRSRSAIVIKAGGRYLGKKVQFRK; not soluble
SLHRLNKKAGDYGEKAAEIYLKKSGYTILNRNFRCFLGEVDIIAKNKDYITFVEVKSRWSDTYGLPCEAVNYRKKLKIYRTAKYYIASKSLINYNFRFDVIEVILNHQNDSYDLKFIENAFQI; soluble

Documented soluble on expression in E. coli of MSLRLEGVVVPLITPFLEDYSIDKEGLKWLVSYLSENGVNGIFVNSSVGEFASLTLDEMKLVTKIALDSRKSYSTLIFAGASTNFTEETIKLAKDFKDMGVDAIVVMAPYFFKVREKELLDHFSMIAEKVDLPIIIYNIPLFTGIDIPISVYKMLVSQHSNIIGTKVTLDSLIFFKKLISEIREIRKDFSILTGFDEYLLPLLYMGGNGGVMGLANAIPKLHLKVYESWKNGNLSDANKYWRNVLNLTDIYDYCNSYTASIKLLLKVLNMPIKNVVRPPLSICEEESKIRGMIKDLSSFLTNSEGHHHHHH : soluble

Recorded result, MIITLFVMVSGNKVKYEGSGKSGLWMSNLEKSDKTSIGPNYFLNLYWQGSKKEEKWTVVERITLYVDGEKYQDDNVDEYDLSEYTGDEMPGGGRMEDHISTFDYMPEDEVIGHDVLVKVEWRTGQKKQTEAIKLHKKPWYKKLEHHHHHH , soluble on expression in E. coli: not soluble

Note to self: soluble on expression in E. coli recorded for MSLDQQSKEQLNIREMTKEDVPQVFDLERRSFNDSSWTIDAFYHEIEQNNFAKYFVLEFEQQIIGYLGLWIVIDQAQITTVAIDDNYRGYGLGQMLLKYGINYASHTCDVMSLEVRVNNKVAQHVYENLGFQYGGKRKNYYGEGEDAMVMWVNLNDEGHHHHHH was soluble

// MDDATEQEVFNRMQMTQFEEKRFELVVIRAEDTVVVEPLRQRETCPKCHQILSSELSRLWHQFVHMDAYNGFLDGKFQIQLPDFEFVIPCPFSTCSLLFLDLIDARFHYLLEHQSCQLFCCGVRFSDYKTALEHLQGTGSVETEAWDQQKHFLKPVYICNCCNRTWSSRNEYVAHLHGRDHMCPDPVCKYIFETNEKCIRHFFEQHYKHLFLDSRHLLLNYKYFLRYQEKQEERAYGLYVCTTCQRRFRDNKGFQSHVASQNCEFFDRKFFVQVIACKCGHQFKYCYYQRDVLLRNLPVLREAMEHVEREAPFNNMPEDVCNIYRSIIVVIIDVNQRLINEKFTNYQRTSPLKHSSFTPRQMAKLLLEVVDYFWKIM : soluble on expression in E. coli value = not soluble

----------
- Experiment Description: soluble on expression in E. coli; label from the status in PepcDB or PDB records
Experimental Endpoint: soluble on expression in E. coli

MAHHHHHHMGNTNSSADRSNADDRGVHSEFMYRYETTKKLKLSYMMLKKNVATAVMTMEVTPQHLRDVGTGYSNVCACLKHGGSGGTNSCIQGQAAGREQASISRSRIDREFADESYKGFQTFCEAMDDIKAGVCVTSRTAIHERITVELDRMVLTAERVLKQGRKTMRSMAHFTKVARQVSRRERAAVDQGKDLSSSKRYAKAVKERNEKESLYKTELEAFDQLYEHVMVVSQEFCSSTTDIFLDCIVGYYREIVATIDVSDTPQCSRLQSRFRSREREVVLHQASDAGFCAMPAGHMDGSKSLSSTVPLKWD; soluble
MESLLTLPLAGEARVRILQITDTHLFAEKHETLLGVNTWESYQAVLEAIRAQQYEYDLIVATGDLAQDQSAAAYQHFAEGIASFRAPCVWLPGNHDFQPAMYSALQEAGISPAKRVLIGEQWQILLLDSQVFGVPHGELSEFQLEWLERKLADAPERQTLLLLHHHPLPAGCSWLDQHSLRNAGELDSVLANFPRVKYLLCGHIHQELDLDWNGRRLLASPSTCVQFKPHCANFTLDTIAPGWRTLELRANGVLETEVHRLQDTRFRPDTASEGY; not soluble
PREPVVNDEMCDVCEVWTAESLFPCRVCTRVFHDGCLRRMGYIQGDSAAEVTEMAHTETGWSCHYCDNINLLLTEE; soluble
ANSVQQQLEALEKSSGGRLGVALINTADNSQILYRADERFAMCSTSKVMAAAAVLKQSESDKHLLNQRVEIKKSDLVNYNPIAEKHVNGTMTLAELGAAALQYSDNTAMNKLIAHLGGPDKVTAFARSLGDETFRLDRTAPTLNTAIPGDPRDTTTPLAMAQTLKNLTLGKALAETQRAQLVTWLKGNTTGSASIRAGLPKSWVVGDKTGSGDYGTTNDIAVIWPENHAPLVLVTYFTQPEQKAERRRDILAAAAKIVTHGF; soluble
MGSDKIHHHHHHMMSLSNERLIHDPLEWDALVARYGLDCYYEYAYFKLAQEPEAVPEMYVHPSEFGILIYPYLKRRISGTPLQDLTTPYGYGGPVFVGLWSSDQIKDIRRHFLEYCQAERIVSETIRFHPLLENDELGRSWCETTTVLQQTVTVALSEPFEAIESQFSSMTRRNIRKAVREDVTVRVAGQEEYAKFIRLYRLTMDKHQADARYYFTDHYFRQFHDGRLPAELLVAEREGKIIAGCIVLYGQQFAHYHLGASDPAELSARPNHLLFAEMIRRAKALGKTALHLGGGTTRNEDDSLLAYKRSFSNRQTSFTLGTSVLHPLLYRQLSEQHFAHNVLSSQDWFPAYRTPVRQLSPRGEQSS; not soluble
MFDSIRETIDYAVENNMSFADIMVKEEMELSGKSRDEVRAQMKQNLDVMRDAVIKGTTGDGVESVTGYTGHDAAKLRDYNETHHALSGYEMIDAVKGAIATNEVNAAMGIICATPTAGSSGTIPGALFKLEKTHDLTEEQMIDFLFTSALFGRVVANNASVAGATGGCQAEVGSASAMAAAAAVAIFGGSPEASGHAMALAISNLLGLVCDPVAGLVEIPCVMRNAIGSGNALISADLALAGIESRIPVDEVIEAMDKVGRNLPASLRETGLGGLAGTPTGEAIKRKIFGTAEDMVKNN; not soluble
MSLDSKIDILIVVNMFLTGFDSKVLNTLYVDKNLMYHDLIQAYSRTNRVEKESKPFGKIVNYRDLKKETDDALRVFSQTNDTDTILMRSYEEYKKEFMDAYRELKMIVPTPHMVDDIQDEGHHHHHH; not soluble
MSLKIKCILIEDEISNEKELYFILRRYDDIEIVGMVQNTDEGIDLVKKLRPQAVFLDINVPNFNGIKLAEEIKDVDSTIAVIFVTAYDKYAVAAFEIKALDYILKPFSIARIEKAVERLKEYINVNKSMKEKLFELICEFNNMERKYIINKIPCENKGKIVLVDVNDIYFFYIKSEKTYVKLNDIIYVTSSTLNDMEKKTGFFRAHRSYLVNLNKIFEIYSWFNGTYKLIMSDYRKSEIPVSRGNVRKLKEIINIEGHHHHHH; not soluble
MGSDKIHHHHHHMTQITPQPGIMDIALYQGGAAHVDGVSNVTKLSSNENPLGPSPAAVEAMAEAAATMHRYPSSDHATLRAAIAETHGLDAERIICGAGSDEIIAFLCQCYAGPGDEVLYTEHGFAMYRISALAAGATPVEVKERERVTDVDALLAGCTAQTKLVFIANPNNPTGTMISEAEVARLADGIPEDAILVLDGAYAEYVEGFDAGAQLIAARHNVVMTRTFSKIYGLGGARVGWAYGPQEIIDVLNRVRGPFNVSTTALAGAEAAVRDTDYVQRCRLENAKWRGWLADQLAELGVPSDTSCTNFILARFASQSEAESCDDFLKQRGLIVRRVAGYNLPTALRITIGDETACRAVAAAVKDFKAGAAE; not soluble
VIHLDSKNFDSFLASHEIAVVDFWAEWCAPCLILAPIIEELAEDYPQVGFGKLNSDENPDIAARYGVMSLPTVIFFKDGEPVDEIIGAVPREEIEIRIKNLLGE; soluble

soluble on expression in E. coli in this record for MKIIGKIGKGKVEVNEKTKFSILLNNVAKKADIAEGKRAVEDIIRVIYRHQPISTKKIAQKTRLPLPIVAKVRTILEREKILKRTERGAELTDLGKEFAENFLKLKYKKSLTCKTCNGRGIVLDEFFEDILNKVRVWAKRRPLVDTTIDQSFATPETSTYRAALMYERGDLEGKRILFVGDDDLTSLPTALTNMAEEIAVVDIDERILKLIEKFSQKEGVKIKTIKHDLRNPLPQDLKERFDVISTDPPYTVDGLKLFLSRGIEALGKEGIAYLSYSHKPIDEWLSIQKAITNMGFVISELIPNFNYYEGSEIIANTTFIARLVGKNLKINIGDTEKIYTGLVKPVIRYYKCLKCGKIHKVGEEVKKVEDLVCECGGKKFKMIKREKLKNELEHHHHHH : soluble
